Target: Cyclin-dependent kinase 2 (Homo sapiens)
Assay: Inhibition of full-length recombinant human His-tagged CDK2 expressed in baculovirus expression system by Z'-LYTE assay
Observed Property: IC50 (nM)
One number for each entry, in nM.

Recorded results for 2 compounds are shown here.
INPUT: Annotate the compound Cn1cc(-c2cnc3c(-c4csc(C(=O)N[C@@H]5CCCC[C@@H]5N)c4)cnn3c2)cn1 (racemic) with its measured IC50.
OUTPUT: 2.2

INPUT: Annotate the compound `Cc1sc(C(=O)N[C@@H]2[C@H](N)CCCC2(F)F)cc1-c1cnn2cc(Cl)cnc12` with its measured IC50.
OUTPUT: 51

Note: attention shifts to another entry.
INPUT: Annotate the compound `O=C(NCC(F)(F)F)c1cc(-c2cnn3cc(-c4ccc(OCCN5CCCCC5)cc4)cnc23)cs1` with its measured IC50.
OUTPUT: 12

====

Please go through the items and note down their pIC50.
Molecular target: Interleukin-1 receptor-associated kinase 1 (Homo sapiens, UniProt P51617)
Sequence (P51617 whole entry, the tested form may be a part): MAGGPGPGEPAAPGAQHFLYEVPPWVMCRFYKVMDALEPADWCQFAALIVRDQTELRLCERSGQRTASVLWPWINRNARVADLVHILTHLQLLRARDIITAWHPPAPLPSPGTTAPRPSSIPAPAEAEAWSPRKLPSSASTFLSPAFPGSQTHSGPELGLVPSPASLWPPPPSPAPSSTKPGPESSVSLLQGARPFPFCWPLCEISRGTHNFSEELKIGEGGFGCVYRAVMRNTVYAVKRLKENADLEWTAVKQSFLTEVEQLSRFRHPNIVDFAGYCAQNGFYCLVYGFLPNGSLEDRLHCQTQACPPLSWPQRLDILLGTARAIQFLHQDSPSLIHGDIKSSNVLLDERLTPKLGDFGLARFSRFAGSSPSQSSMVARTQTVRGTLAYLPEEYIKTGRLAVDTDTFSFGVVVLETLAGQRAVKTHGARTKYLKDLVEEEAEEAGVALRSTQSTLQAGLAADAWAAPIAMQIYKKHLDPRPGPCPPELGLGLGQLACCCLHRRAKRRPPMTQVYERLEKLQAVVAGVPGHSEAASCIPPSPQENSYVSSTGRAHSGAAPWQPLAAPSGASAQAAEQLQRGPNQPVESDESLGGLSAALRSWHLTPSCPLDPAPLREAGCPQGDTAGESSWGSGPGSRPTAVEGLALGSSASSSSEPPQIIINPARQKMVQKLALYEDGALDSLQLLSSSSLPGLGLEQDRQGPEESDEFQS
Test: Inhibition of recombinant human GST-tagged IRAK1 (194 to 712 residues) catalytic domain expressed in baculovirus expression system by Adapta assay
Numbers only, as −log10 of the molar value.

INPUT: Annotate the compound `Cc1sc(C(=O)N[C@@H]2[C@H](N)CCCC2(F)F)cc1-c1cnn2cc(Cl)cnc12` with its measured pIC50.
OUTPUT: 5.72

INPUT: Annotate the compound Cn1cc(-c2cnc3c(-c4csc(C(=O)N[C@@H]5CCCC[C@@H]5N)c4)cnn3c2)cn1 (racemic) with its measured pIC50.
OUTPUT: 8.05

Note: attention shifts to another entry.
INPUT: Annotate the compound `Cn1cc(-c2cnc3c(-c4csc(C(=O)NCC(F)(F)F)c4)cnn3c2)cn1` with its measured pIC50.
OUTPUT: 7.72

====

Target: Leucine-rich repeat serine/threonine-protein kinase 2 (Homo sapiens, UniProt Q5S007)
Sequence (Q5S007 whole entry, the tested form may be a part): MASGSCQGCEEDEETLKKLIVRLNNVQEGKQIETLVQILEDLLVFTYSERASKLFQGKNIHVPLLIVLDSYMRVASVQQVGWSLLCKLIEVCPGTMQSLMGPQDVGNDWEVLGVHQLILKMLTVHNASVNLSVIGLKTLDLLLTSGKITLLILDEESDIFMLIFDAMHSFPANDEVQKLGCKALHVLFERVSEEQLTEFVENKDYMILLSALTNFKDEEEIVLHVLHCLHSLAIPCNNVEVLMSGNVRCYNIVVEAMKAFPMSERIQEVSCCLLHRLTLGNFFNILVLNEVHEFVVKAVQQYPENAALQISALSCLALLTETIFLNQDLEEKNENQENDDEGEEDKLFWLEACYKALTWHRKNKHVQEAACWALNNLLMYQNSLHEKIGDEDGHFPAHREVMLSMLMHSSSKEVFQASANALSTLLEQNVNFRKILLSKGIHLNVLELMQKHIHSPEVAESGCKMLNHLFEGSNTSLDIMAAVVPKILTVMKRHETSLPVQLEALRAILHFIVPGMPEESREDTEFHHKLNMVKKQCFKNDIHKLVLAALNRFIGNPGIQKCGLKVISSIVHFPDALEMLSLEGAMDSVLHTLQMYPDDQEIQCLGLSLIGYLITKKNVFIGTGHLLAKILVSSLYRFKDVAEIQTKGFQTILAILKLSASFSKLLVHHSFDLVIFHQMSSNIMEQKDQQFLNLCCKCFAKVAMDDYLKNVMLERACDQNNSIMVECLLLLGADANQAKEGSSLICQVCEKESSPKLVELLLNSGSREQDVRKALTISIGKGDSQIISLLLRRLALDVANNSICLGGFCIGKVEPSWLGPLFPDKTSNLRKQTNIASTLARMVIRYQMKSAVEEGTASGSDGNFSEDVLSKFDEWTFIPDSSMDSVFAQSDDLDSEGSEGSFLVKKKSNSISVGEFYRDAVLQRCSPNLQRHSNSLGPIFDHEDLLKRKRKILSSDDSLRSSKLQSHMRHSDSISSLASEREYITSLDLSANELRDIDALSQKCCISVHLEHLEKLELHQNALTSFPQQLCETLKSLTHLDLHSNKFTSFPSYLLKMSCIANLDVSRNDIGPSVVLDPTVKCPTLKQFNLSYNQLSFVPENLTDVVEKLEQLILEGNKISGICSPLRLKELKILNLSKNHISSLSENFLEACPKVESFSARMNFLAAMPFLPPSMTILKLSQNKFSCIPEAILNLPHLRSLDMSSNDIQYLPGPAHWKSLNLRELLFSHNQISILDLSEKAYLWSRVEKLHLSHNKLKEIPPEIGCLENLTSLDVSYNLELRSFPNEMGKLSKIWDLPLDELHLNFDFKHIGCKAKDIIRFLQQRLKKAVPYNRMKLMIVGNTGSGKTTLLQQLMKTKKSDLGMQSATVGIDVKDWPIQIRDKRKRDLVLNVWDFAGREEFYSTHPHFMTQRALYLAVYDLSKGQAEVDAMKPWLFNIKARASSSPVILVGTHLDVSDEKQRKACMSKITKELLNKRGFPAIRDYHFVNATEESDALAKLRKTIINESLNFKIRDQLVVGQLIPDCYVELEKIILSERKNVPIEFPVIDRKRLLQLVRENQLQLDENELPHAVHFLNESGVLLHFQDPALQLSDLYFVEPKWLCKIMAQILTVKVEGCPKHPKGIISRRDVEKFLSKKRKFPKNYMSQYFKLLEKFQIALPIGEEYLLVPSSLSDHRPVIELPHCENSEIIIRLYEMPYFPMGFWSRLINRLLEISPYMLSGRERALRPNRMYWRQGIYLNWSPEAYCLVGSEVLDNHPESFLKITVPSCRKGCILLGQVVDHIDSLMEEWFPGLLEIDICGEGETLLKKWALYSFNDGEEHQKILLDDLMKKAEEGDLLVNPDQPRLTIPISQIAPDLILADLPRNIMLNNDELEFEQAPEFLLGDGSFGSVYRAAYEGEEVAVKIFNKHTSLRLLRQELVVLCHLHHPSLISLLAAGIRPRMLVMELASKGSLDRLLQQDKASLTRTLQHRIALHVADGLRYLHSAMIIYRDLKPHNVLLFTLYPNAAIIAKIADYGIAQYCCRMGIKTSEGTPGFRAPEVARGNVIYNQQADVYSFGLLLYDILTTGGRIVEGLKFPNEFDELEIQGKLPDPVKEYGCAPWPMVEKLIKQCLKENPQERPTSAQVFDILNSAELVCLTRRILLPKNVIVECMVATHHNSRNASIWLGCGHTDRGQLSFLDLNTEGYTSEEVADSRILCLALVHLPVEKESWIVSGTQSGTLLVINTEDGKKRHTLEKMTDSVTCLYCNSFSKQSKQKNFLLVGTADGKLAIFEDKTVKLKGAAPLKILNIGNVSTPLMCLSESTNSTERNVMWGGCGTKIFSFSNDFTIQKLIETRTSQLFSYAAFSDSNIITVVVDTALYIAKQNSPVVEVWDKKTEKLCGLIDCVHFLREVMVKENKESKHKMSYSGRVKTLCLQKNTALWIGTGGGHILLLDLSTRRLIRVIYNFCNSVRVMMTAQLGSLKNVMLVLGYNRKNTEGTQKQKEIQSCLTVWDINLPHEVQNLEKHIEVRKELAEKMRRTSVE
Test: Inhibition of recombinant human GST-tagged LRRK2 catalytic domain expressed in baculovirus expression system by Adapta assay
Observed Property: pIC50
Give bare numbers, as −log10 of the molar value.

Recorded results for 2 molecules are shown here.
INPUT: Annotate the molecule `Cc1sc(C(=O)N[C@@H]2[C@H](N)CCCC2(F)F)cc1-c1cnn2cc(Cl)cnc12` with its measured pIC50.
OUTPUT: 7.21

INPUT: Annotate the molecule Cn1cc(-c2cnc3c(-c4csc(C(=O)N[C@@H]5CCCC[C@@H]5N)c4)cnn3c2)cn1 (racemic) with its measured pIC50.
OUTPUT: 8.51

Note: attention shifts to another entry.
INPUT: Annotate the molecule `O=C(NCC(F)(F)F)c1cc(-c2cnn3cc(-c4ccc(OCCN5CCCCC5)cc4)cnc23)cs1` with its measured pIC50.
OUTPUT: 7.85

====

Please go through the items and note down their pIC50.
Target: Cyclin-dependent kinase 7 (Homo sapiens, UniProt P50613)
Sequence (P50613 whole entry): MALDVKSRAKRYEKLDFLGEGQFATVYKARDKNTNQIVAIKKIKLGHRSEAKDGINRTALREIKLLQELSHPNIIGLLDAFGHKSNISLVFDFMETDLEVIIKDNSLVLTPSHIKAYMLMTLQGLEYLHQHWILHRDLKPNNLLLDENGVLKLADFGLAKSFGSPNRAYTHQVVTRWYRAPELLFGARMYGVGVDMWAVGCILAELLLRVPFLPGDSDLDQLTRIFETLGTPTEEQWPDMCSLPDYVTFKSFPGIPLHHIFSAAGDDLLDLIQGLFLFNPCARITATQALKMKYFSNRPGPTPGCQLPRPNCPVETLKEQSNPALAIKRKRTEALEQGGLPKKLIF
Assay: Inhibition of full-length recombinant human His-tagged CDK7 expressed in baculovirus expression system by Adapta assay
Numbers only, as −log10 of the molar value.

INPUT: Annotate the molecule `O=C(NCC(F)(F)F)c1cc(-c2cnn3cc(-c4ccc(OCCN5CCCCC5)cc4)cnc23)cs1` with its measured pIC50.
OUTPUT: 7.52

INPUT: Annotate the molecule Cn1cc(-c2cnc3c(-c4csc(C(=O)N[C@@H]5CCCC[C@@H]5N)c4)cnn3c2)cn1 (racemic) with its measured pIC50.
OUTPUT: 8.39

Note: attention shifts to another entry.
INPUT: Annotate the molecule `Cn1cc(-c2cnc3c(-c4csc(C(=O)NCC(F)(F)F)c4)cnn3c2)cn1` with its measured pIC50.
OUTPUT: 7.28

Value source: ChEMBL document CHEMBL4477252
